Would you mind telling me the reported Potency of each entry?
target: Serine/threonine-protein kinase PLK1 (Homo sapiens); assay: qHTS for Inhibitors of PLK1-PDB (polo-like kinase 1 - polo-box domain): Primary Screen; conditions: Plk1 PBD binding of FITC phosphopeptide, fluorescence polarization; also: nearly all actives have a fitted effect of over 65% in size; also: potency is read from the fitted curve at half-maximal effect
Hit rate of the full screen: of about 360,000 compounds, about 10,000 (2.8%) were called active. Another 4% or so got no clear call; they are omitted. Shown is part of a subset that was picked to be rich in actives.

Query block: # return recorded Potency for input O=C1NC(=O)N(CCc2ccc(F)cc2)C(=O)/C1=C/C=C/c1ccccc1
Result block: 0.532 µM (active)

Query block: Using the record for COc1ccc(N2C(=O)/C(=C/c3ccco3)C(=O)NC2=S)cc1 , state its measured Potency.
Result block: 2.67 µM (active)

Query block: Please supply the value of reported Potency for the item CC(C)(C)c1ccc(OC(=O)N2CCCCC2)cc1
Result block: 23.8 µM (active)

Query block: Supply reported Potency belonging to this molecule: c1ccc(Cc2nn3c(Cn4cnc5ccccc54)nnc3s2)cc1
Result block: 11.9 µM (active)

Query block: Name the recorded Potency of the molecule listed here: Cc1noc(C)c1CSc1nc2cc(S(=O)(=O)N3CCOCC3)ccc2o1
Result block: 21.2 µM (active)

###

target: Serine/threonine-protein kinase PLK1 (Homo sapiens) (UniProt P53350); experiment: qHTS for Inhibitors of PLK1-PDB (polo-like kinase 1 - polo-box domain): Primary Screen; conditions: Plk1 PBD binding of FITC phosphopeptide, fluorescence polarization; also: nearly all actives have a fitted effect of over 65% in size; as to max response, negative = inhibition: series mostly up to about 57 µM; % is scaled to controls: 0 for no effect and ±100 for the full control effect
Sequence (P53350 whole entry, looked up, the tested form may be a part): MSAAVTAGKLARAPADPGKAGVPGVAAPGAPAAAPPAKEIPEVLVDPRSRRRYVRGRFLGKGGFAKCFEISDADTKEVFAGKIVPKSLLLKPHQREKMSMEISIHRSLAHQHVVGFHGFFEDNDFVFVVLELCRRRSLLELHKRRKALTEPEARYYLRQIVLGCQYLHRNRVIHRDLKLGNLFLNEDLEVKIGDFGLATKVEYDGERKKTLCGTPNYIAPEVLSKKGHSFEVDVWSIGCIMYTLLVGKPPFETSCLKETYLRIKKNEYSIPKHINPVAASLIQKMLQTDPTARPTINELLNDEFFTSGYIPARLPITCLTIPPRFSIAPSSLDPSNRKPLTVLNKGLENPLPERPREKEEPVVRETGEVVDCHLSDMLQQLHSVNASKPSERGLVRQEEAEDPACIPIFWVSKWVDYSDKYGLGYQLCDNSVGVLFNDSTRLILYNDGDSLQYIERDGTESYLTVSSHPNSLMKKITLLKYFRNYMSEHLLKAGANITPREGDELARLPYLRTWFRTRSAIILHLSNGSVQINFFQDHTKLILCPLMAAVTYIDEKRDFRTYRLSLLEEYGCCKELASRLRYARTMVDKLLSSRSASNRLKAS
The campaign covered roughly 360,000 compounds. About 10,000 (2.8%) were called active. Roughly 4% stayed inconclusive and do not appear here. The sample as a whole holds a higher share of actives than the screen did.
ENDPOINT_NAME: max response, negative = inhibition (%)
The reply should contain only the number, in %.

Query block: Identify max response, negative = inhibition associated with the molecule CC[N+](CC)(CC)CCCCCCCCCC[N+](CC)(CC)CC
Result block: 3.96

Query block: In one line, give reported max response, negative = inhibition of the entry COc1ccc(-n2nnnc2C(c2cccc3ccccc23)N2CCC(n3c(=O)[nH]c4ccccc43)CC2)cc1 (stereo not given) .
Result block: -4.82

Query block: Dear colleague, please send me the reported max response, negative = inhibition for C=CC12CN(C)[C@@H]3C4CO[C@H](C[C@H]41)[C@]1(C(=O)Nc4ccccc41)[C@@H]32 (stereo not given in full) when you can.
Result block: -7.71

Query block: Return max response, negative = inhibition for the following molecule: O=C(N/N=C/c1c(O)n(Cc2ccccc2)c(=O)[nH]c1=O)c1ccccc1
Result block: -9.07

Query block: Specify reported max response, negative = inhibition for the molecule shown: COc1ccc(C(=O)C2CCCN(Cc3ccc(C)s3)C2)cc1OC (stereo not given)
Result block: -12.4

Query block: Item COc1cccc(C(c2nnnn2-c2ccc3c(c2)OCCO3)N2CCC3(CC2)C(=O)NCN3c2ccccc2)c1OC (stereo not given) : provide max response, negative = inhibition
Result block: -7.89

Query block: Return the recorded max response, negative = inhibition value; entry: COc1ccc(-c2nn(CCC#N)cc2C(=O)O)cc1
Result block: -2.51

Query block: Give me measured max response, negative = inhibition, please, for this molecule: O=C1NCN(c2ccccc2)C12CCN(C(c1cccs1)c1nnnn1C1CCCCC1)CC2 (stereo not given)
Result block: -2.86

Query block: Annotate the molecule CCCC[N+]1(C)C2CC(OC(=O)C(CO)c3ccccc3)CC1C1OC12 (stereo not given) with its measured max response, negative = inhibition.
Result block: -0.372

Query block: Find the measured max response, negative = inhibition of COc1ccc(-n2c(O)c(C(C)=Nc3ccc4c(c3)CCC4)c(=O)[nH]c2=O)cc1 and report it.
Result block: 2.28

Query block: Using the record for CCC1(C)CC(CCNCc2ccc(N(C)C)cc2)(c2ccc(F)cc2)CCO1 (stereo not given) , state its measured max response, negative = inhibition.
Result block: -1.51

Query block: Identify measured max response, negative = inhibition corresponding to CC(C)c1ccc(O)c(CN2CCN(c3ccccc3)CC2)c1
Result block: 6.47

Query block: State, in one line, measured max response, negative = inhibition of CC(=O)Nc1ccccc1C(=O)OCC(=O)c1cccc2ccccc12
Result block: -5.92

Query block: Give max response, negative = inhibition for the following molecule: CN1CCC(N(C)Cc2cccnc2)CC1
Result block: -7.61

Query block: Recall and state the measured max response, negative = inhibition for CCc1cccc2c(C#N)cn(CC(=O)N3CCOCC3)c12 .
Result block: -5.32

Query block: Answer with reported max response, negative = inhibition of COc1ccccc1C1=NCc2nnc(CSC)n2-c2ccc(Cl)cc21
Result block: 2.66

Query block: Identify max response, negative = inhibition associated with the molecule COc1ccccc1CN1CCN(C(=O)Cc2ccccc2)CC1
Result block: 3.36

Query block: Hello, please tell me recorded max response, negative = inhibition for this one: CCC(=O)c1ccc(OCC(=O)N2CCN(CC(=O)Nc3ccc(C)cc3)CC2)cc1
Result block: -6.03

Query block: Report max response, negative = inhibition for CC(=NCc1ccc2c(c1)OCO2)c1c(O)[nH]c(=O)[nH]c1=O
Result block: -14.7

Query block: Supply recorded max response, negative = inhibition for Cc1cc(=O)oc2c(C)c(OCC(=O)N3CCN(Cc4ccc5c(c4)OCO5)CC3)ccc12 here.
Result block: -7.37

Query block: Provide max response, negative = inhibition value for the following molecule: CC(C)N(CC#CCC1(O)c2ccccc2-c2ccccc21)C(C)C
Result block: 4.02

Query block: Entry Cc1cc(C)c2c(c1)NP(=S)(c1ccccc1)N2 (stereo not given) needs its max response, negative = inhibition filled in; supply it.
Result block: -17.9

Query block: Determine its reported max response, negative = inhibition: O=C(COc1ccc2ccccc2c1)N1CCN(Cc2ccncc2)CC1
Result block: -21.6

Query block: Please give the documented max response, negative = inhibition of O=c1[nH]c2ccccc2n1C1CCN(C(c2ccnc3ccccc23)c2nnnn2Cc2ccccc2)CC1 (stereo not given)
Result block: 3

Query block: Tell me measured max response, negative = inhibition for CCn1cc(CN2CCCC(C(=O)c3cccc(C(F)(F)F)c3)C2)cn1 (stereo not given) please.
Result block: -6.76
